Target of assay: HNF-1A DD-DBD (HNF-1A 1-279) (UniProt P20823 1-279)
Sequence (P20823 1-279): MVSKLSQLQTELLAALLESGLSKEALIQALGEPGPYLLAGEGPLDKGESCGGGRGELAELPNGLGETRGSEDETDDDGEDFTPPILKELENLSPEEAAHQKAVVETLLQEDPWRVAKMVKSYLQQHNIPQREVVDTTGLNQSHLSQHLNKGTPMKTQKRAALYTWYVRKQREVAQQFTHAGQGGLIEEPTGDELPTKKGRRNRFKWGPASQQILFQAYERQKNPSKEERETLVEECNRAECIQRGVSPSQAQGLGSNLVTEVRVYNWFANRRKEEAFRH
Test details: ITC; text refers to ref 36; Methods also list RA among the titrations done here; ITC: 20 mM HEPES pH 7.5, 200 mM NaCl, 1 mM TCEP, 30 C, 250 uM dsDNA into 50 uM protein; BLI: streptavidin sensor with BiotinTEG dsDNA, buffer not in material
Recorded conditions: protein: recombinant; tags: His6 removed by TEV; chain copies: 2; label: 5' BiotinTEG on forward strand (BLI only); blunt
Property: pKd
One number for each entry, as −log10 of the molar value.

Prompt line: // returns reported pKd for input RA (rat albumin promoter) (dsDNA) DNA 1: CTTGGTTAATAATTCACCAGA DNA 2: TCTGGTGAATTATTAACCAAG
Response line: 7.00

Ref: paper PMC11382887
